Listed here: molecules with reported MIC for S. aureus ATCC 43300.
Could you give me the number in mg/L? Just the number is fine.

Asked: Report MIC for CC(=O)NC[C@H]1CN(c2ccc(N3CCN(C(=O)CNC(=O)c4cccc[n+]4[O-])CC3)c(F)c2)C(=O)N1 please.
Given back: 16

Asked: Now the same for CC1Sc2c(C(=O)O)c(=O)c3cc(F)c(N4CCN(Cc5nc6ccc([N+](=O)[O-])cc6[nH]5)CC4)cc3n21 (stereo not shown)
Given back: 1

Asked: Now the same for CC1Sc2c(C(=O)O)c(=O)c3cc(F)c(N4CCN(CC(=O)Nc5ccc6nc(N)[nH]c6c5)CC4)cc3n21 (stereo not shown)
Given back: 32

Asked: Now the same for CC1Sc2c(C(=O)O)c(=O)c3cc(F)c(N4CCN(C(=O)CNC(=N)N)CC4)cc3n21 (stereo not shown)
Given back: 8

Asked: Now the same for CC1Sc2c(C(=O)O)c(=O)c3cc(F)c(N4CCN(C(=O)CNC(=O)c5cccc[n+]5[O-])CC4)cc3n21 (stereo not shown)
Given back: 16

Asked: Now the same for CC1Sc2c(C(=O)O)c(=O)c3cc(F)c(N4CCN(C(=O)c5ccccn5)CC4)cc3n21 (stereo not shown)
Given back: 0.25
